assay: Iohexol plasma clearance in mice; type: in vivo; conditions: mouse, intravenous, 100 μl (iohexol diluted 1:10 from stock solution), male C3H mice, read-out: GFR with the iohexol plasma clearance method
valueType: clearance (mL/min)

INSERT INTO measurements (molecule, resultvalue) VALUES
  ('CC(=O)N(CC(O)CO)c1c(I)c(C(=O)NCC(O)CO)c(I)c(C(=O)NCC(O)CO)c1I (stereo not shown) [Iohexol]', 0.51);

====

assay: Iohexol plasma clearance; format: in vivo, rats; conditions: rat, plasma, intravenous, 105 mg; SD male rats, baseline before 0.35% adenine (CKD model); read-out: Mean GFR estimated from iohexol clearance
valueType: clearance

INSERT INTO assay_data (compound, resultvalue) VALUES
  ('CC(=O)N(CC(O)CO)c1c(I)c(C(=O)NCC(O)CO)c(I)c(C(=O)NCC(O)CO)c1I (stereo not shown) [Iohexol]', '2.89 mL/min');

====

test: Iohexol plasma clearance; type: in vivo, rats; conditions: rat, plasma, iv, 105 mg; SD male rats (n = 8); read-out: GFR Iohexol (iohexol clearance)
valueType: clearance (mL/min)

INSERT INTO assay_data (compound, quantityunit, resultvalue) VALUES
  ('CC(=O)N(CC(O)CO)c1c(I)c(C(=O)NCC(O)CO)c(I)c(C(=O)NCC(O)CO)c1I (stereo not shown) [Iohexol]', 'mL/min', 2.89);
